- Test system: OVCAR-4 ovarian
- experimental-details: NCI-60 one-dose screen, 48 h
- assay-setup: 10 µM unless noted
The panel holds about 83,000 compounds, 20% with a hit somewhere; the sample as a whole holds those more often. Calls of active or inactive are those of the source. Rule for the calls: active = growth percent below 10; inactive = the rest.
Outcomes: 1.0 (active), 0.0 (inactive)

> print(dat)
                                   compound  assigned.category
1  N#CSc1c[nH]c2cccc(/C=C/C(=O)/C=C(/C=C/c3cccc4[nH]cc(SC#N)c34)OB(F)F)c12                1.0
2  COc1ccc(C(O)c2cc3c(N)c(C(=O)Nc4cccc(Br)c4)sc3nc2C)cc1 (centres undefined)                0.0
3  Nc1c(C(=O)Nc2ccncc2)sc2nc3c(cc12)C(O)CCC3 (centres undefined)                0.0
4  O=S(=O)(NCCCNc1nccc(-c2c(-c3ccc(F)c(O)c3)nc3occn23)n1)c1ccc(Cl)cc1                0.0
5  C=CC(=O)N1CCN(c2cccc(Oc3nccc(Nc4nnc(-c5ccc(Br)cc5)s4)n3)c2)CC1                0.0
6  COc1ccc2[nH]c(C(=O)N3CCN(C(=O)OCc4ccc5c(Cl)cc(Cl)c(O)c5n4)CC3)cc2c1                1.0
7  Nc1cc(C(=O)NC[C@H]2CN(c3ccc(N4CCC(C(=O)O)CC4)cc3)C(=O)O2)ccc1Cl                0.0
8                 O=[N+]([O-])c1ccc(O)cc1Br                0.0
9  CCN1C(=O)N(CC)C2C1NN=c1s/c(=C\c3ccccc3F)c(=O)n12 (centres undefined)                0.0
